system: Methicillin-Resistant Staphylococcus aureus (Los Angeles County (LAC) clone); assay: microbe, parasite or virus in culture; format: cell-based; details: broth microdilution, Mueller Hinton media, 2-fold dilutions, 37 °C overnight, no visible growth; triplicate; N/A = not active
property.measured: MIC, Methicillin-Resistant Staphylococcus aureus (MRSA) (µg/mL)

C[C@H]1COc2c(N3CCN(C)CC3)c(F)cc3c(=O)c(C(=O)O)cn1c23 [Levofloxacin (1), Levofloxacin]: 2

* * *

test system: Methicillin-Resistant Staphylococcus aureus (Los Angeles County (LAC) clone); test: microbe, parasite or virus in culture; assay type: cell-based; conditions: broth microdilution, Mueller Hinton media, 2-fold dilutions, 37 °C overnight, no visible growth; triplicate; N/A = not active
Side chains are listed from the residue outwards. Peptide text beside a SMILES is read from it. * marks the point of attachment. Levofloxacinoyl = C[C@H]1COc2c(N3CCN(C)CC3)c(F)cc3c(=O)c(C(=O)*)cn1c23; X1 = C[C@H]1COc2c(F)c(F)cc3c(=O)c(C(=O)*)cn1c23; βAla = NCCC(=O)O
Measured MIC, Methicillin-Resistant Staphylococcus aureus (MRSA) of individual entries
property.measured: MIC, Methicillin-Resistant Staphylococcus aureus (MRSA) (µg/mL)

C[C@H]1COc2c(F)c(F)cc3c(=O)c(C(=O)NCCC(=O)NCCCC[C@@H]4NC(=O)[C@H](Cc5c[nH]c6ccccc56)NC(=O)[C@H](Cc5c[nH]c6ccccc56)NC(=O)[C@H](Cc5c[nH]c6ccccc56)NC(=O)[C@H](Cc5c[nH]c6ccccc56)NC(=O)[C@H](CCCNC(=N)N)NC(=O)[C@H](CCCNC(=N)N)NC(=O)[C@H](CCCNC(=N)N)NC(=O)[C@H](CCCNC(=N)N)NC4=O)cn1c23 (cyclo(K([βAla-X1])RRRRWWWW)): 8
C[C@H]1COc2c(N3CCN(C)CC3)c(F)cc3c(=O)c(C(=O)NCCC(=O)NCCCC[C@H](N)C(=O)N[C@@H](CCCNC(=N)N)C(=O)N[C@@H](CCCNC(=N)N)C(=O)N[C@@H](CCCNC(=N)N)C(=O)N[C@@H](CCCNC(=N)N)C(=O)N[C@@H](Cc4c[nH]c5ccccc45)C(=O)N[C@@H](Cc4c[nH]c5ccccc45)C(=O)N[C@@H](Cc4c[nH]c5ccccc45)C(=O)N[C@@H](Cc4c[nH]c5ccccc45)C(=O)O)cn1c23 [Conjugate linear (R4W4)-levofloxacin (6)] (H-K([βAla-Levofloxacinoyl])RRRRWWWW-OH): 64
C[C@H]1COc2c(N3CCN(C)CC3)c(F)cc3c(=O)c(C(=O)NCCC(=O)NCCCC[C@@H]4NC(=O)[C@H](Cc5c[nH]c6ccccc56)NC(=O)[C@H](Cc5c[nH]c6ccccc56)NC(=O)[C@H](Cc5c[nH]c6ccccc56)NC(=O)[C@H](Cc5c[nH]c6ccccc56)NC(=O)[C@H](CCCNC(=N)N)NC(=O)[C@H](CCCNC(=N)N)NC(=O)[C@H](CCCNC(=N)N)NC(=O)[C@H](CCCNC(=N)N)NC4=O)cn1c23 [Conjugate cyclic [R4W4]-levofloxacin (8)] (cyclo(K([βAla-Levofloxacinoyl])RRRRWWWW)): 32

These measurements were taken from paper PMC6152667.
